Each recorded value in this set is attributed to ChEMBL document CHEMBL1201862.

# Assayed system: UniProtKB P04156
# Format: functional, cell-based
Activity calls are given as the source filed them.
# valid calls are T (active), F (inactive); nothing else

Cc1cc(C)nc(NS(=O)(=O)c2ccc(NC(=O)CSc3nc(O)c(C#N)c(-c4ccccc4)n3)cc2)n1: T
CCOC(=O)CSc1ccc2ccccc2n1: T
CCCN(c1ccc(OCC)cc1)S(=O)(=O)c1ccc2c(c1)NC(=O)CO2: F

Task: I'd appreciate the recorded outcome for CCc1cc2cccc(C)c2nc1SCC(=O)NNC(=O)c1ccco1 from this test.
Output: T

* * *

Let's look at some compounds and their measured EC50.
# Test system: Streptococcus
# Assay protocol: GAS UMAA2166 growth inhibition – luminescence, BacTiterGlo, counter-screen for streptokinase expression inhibitor project, dose response (AID 1915);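 note: potency for reduction of bacterial viability or growth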
# Assay type: functional, organism-based
Activity calls are given as the source filed them.

Known EC50 results, listed for orientation:
COc1cc(/C=N/Nc2nc(Nc3ccc(C)cc3)nc(-n3nc(C)cc3C)n2)cc(OC)c1OC: 15.5 µM (active)
CCCCNC(=O)c1sc(=S)n2c1[nH]c(=O)c1ccccc12: 13.1 µM (active)
O=C(NCc1ccccn1)Nc1ccc(F)c(Cl)c1: > 150 µM (not active)

Summary line: CC1CCN(C(=O)c2ccc3c(c2)NC(=O)/C(=C/c2ccccc2)S3)CC1 , Streptococcus, reported EC50 = 6.87 µM (active)

Summary line: c1ccc(Oc2nc(-c3ccccn3)nc3ccccc23)cc1 , Streptococcus, reported EC50 = 22.5 µM (active)

Summary line: Fc1ccc(-[n+]2nc(Nc3ccccc3)sc2-c2c3ccccc3cc3ccccc23)cc1 , Streptococcus, reported EC50 = 9.23 µM (active)

Summary line: COc1ccccc1NC(=O)C(=O)NNC(=O)COc1ccc2ccccc2c1 , Streptococcus, reported EC50 = 17.7 µM (active)

Summary line: CCOC(=O)c1ccc(-c2ccc3c(=O)c4ccccc4n(C)c3c2)cc1F , Streptococcus, reported EC50 = > 150 µM (not active)

Summary line: CC(/C=C1\SC(=S)N(NS(=O)(=O)c2ccc(C)cc2)C1=O)=C\c1ccccc1 , Streptococcus, reported EC50 = 8.34 µM (active)
